target_entity: T1, CRBN, Q96SW2;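 further: pooled lentiviral library of zinc finger degron-EGFP fusions in mCherry-positive Jurkat cells, FACS-sorted after compound exposure, with degron abundance counted by next-generation sequencing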
T1 chain: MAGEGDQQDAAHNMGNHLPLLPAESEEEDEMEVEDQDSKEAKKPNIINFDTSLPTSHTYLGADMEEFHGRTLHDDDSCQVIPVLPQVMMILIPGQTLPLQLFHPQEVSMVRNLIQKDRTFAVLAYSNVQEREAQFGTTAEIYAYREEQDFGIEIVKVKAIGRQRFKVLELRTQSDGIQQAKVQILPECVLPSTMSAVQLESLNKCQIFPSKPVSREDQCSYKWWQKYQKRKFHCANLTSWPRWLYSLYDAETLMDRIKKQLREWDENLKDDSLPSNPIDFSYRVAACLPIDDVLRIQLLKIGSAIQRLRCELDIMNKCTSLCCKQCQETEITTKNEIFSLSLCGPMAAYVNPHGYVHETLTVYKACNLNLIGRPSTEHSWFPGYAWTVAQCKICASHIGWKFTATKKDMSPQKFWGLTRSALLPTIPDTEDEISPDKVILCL
method_description: log2 fold change of degron read counts, EGFP-low vs EGFP+ sorted cells (limma voom), compound-induced degradation; higher = more compound-induced degradation of the degron-EGFP fusion; degrons are variants of IKZF1/3 zinc finger 2; compound dose not given here
protocol_conditions: Jurkat; 18 h; compound: compound 19 (5-tert-butyl-thalidomide)
In all, about 8,300 sequences were measured (“log2 fold change of degron read counts, EGFP-low vs EGFP+ sorted cells (limma voom), compound-induced degradation”: median about -1.1, highest 2% from about 3.2 on). The sample as a whole holds a higher share of the highest values than the screen did.
Tag: satisfied if measured log2 fold change of degron read counts is not below -0.2, not satisfied if it is.

sequence_chain	label_value
LRCNQCGFDCTQKGNLLRHIKL [46L_47R_49N_50Q_52G_53F_54D_55C_67L_, Q9UKT9]	not satisfied
FICEICGAHFTQKGNLLRHIKL [46F_47I_49E_50I_52G_53A_54H_55F_67L_, Q9UKT9]	satisfied
FECEICGAHFTQKGNLLRHIKL [46F_47E_49E_50I_52G_53A_54H_55F_67L_, Q9UKT9]	not satisfied
FGCEICGRGFTQKGNLLRHIKL [46F_47G_49E_50I_52G_53R_54G_55F_67L_, Q9UKT9]	not satisfied
FWCEICGAHFTQKGNLLRHIKL [46F_47W_49E_50I_52G_53A_54H_55F_67L_, Q9UKT9]	satisfied
FFCEICGAHFTQKGNLLRHIKL [46F_47F_49E_50I_52G_53A_54H_55F_67L_, Q9UKT9]	satisfied
